TARGET DESC: T1, cynomolgus CD3e/d complex on cells transiently transfected with pcDNA3.1-CD3e/d-cyn-mix (cynomolgus, UniProt Q95LI5 22-198; Q95LI8 22-171)
T1 construct: Tagged screening constructs
T1 sequence (Q95LI5 22-198 limits assumed, chain 1 of 2): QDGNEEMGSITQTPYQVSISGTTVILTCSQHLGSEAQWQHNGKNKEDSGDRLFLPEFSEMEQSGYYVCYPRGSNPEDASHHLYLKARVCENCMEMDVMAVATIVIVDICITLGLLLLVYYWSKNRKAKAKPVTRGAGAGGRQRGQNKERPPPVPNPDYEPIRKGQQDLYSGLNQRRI
T1 sequence (Q95LI8 22-171 limits assumed, chain 2 of 2): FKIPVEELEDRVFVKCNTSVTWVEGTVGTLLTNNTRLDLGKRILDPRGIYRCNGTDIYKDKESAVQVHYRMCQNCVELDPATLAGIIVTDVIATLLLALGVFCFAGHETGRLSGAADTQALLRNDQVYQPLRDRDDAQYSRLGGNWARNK
PROTOCOL DETAILS: CELISA, hybridoma supernatant
Hi, to clarify the labels: Satisfied covers % positive from 70% upward, Not satisfied covers anything below 70%.

BLW-2B4 (antibody, V domains shown, OmniRat hybridoma supernatant: human V regions on rat constant regions; also called V regions cloned as CD3B311 (CD3H218/CD3L123)) VH: QVQLQQSGPGLVKPSQTLSLTCAISGDSVFNNNAAWSWIRQSPSRGLEWLGRTYYRSKWLYDYAVSVKSRITVNPDTSRNQFTLQLNSVTPEDTALYYCVRGYSSSFDYWGQGTLVTVSS VL: QSALTQPASVSGSPGQSITISCTGTSRDIGTYKFVSWYQQHPDKAPKVLLYEVNKRPSGVSSRFSGSKSGNTASLTISGLQAEDQADYHCCSYAGSGTLLFGGGTKLTVL = Not satisfied

Say whether BLX-1F8 (antibody, V domains shown, OmniRat hybridoma supernatant: human V regions on rat constant regions; also called V regions cloned as CD3B314 (CD3H220/CD3L126)) VH: QVQLQQSGPGLVKPSQTLSLTCAISGDSVFNNNAAWSWIRQSPSRGLEWLGRTYYRSKWLYDYAVSVKSRITVNPDTSRNQFTLQLKSVTPEDTALYYCSRGYSSSFDYWGQGTLVTVSS VL: QSALTQPASVSGSPGQSITISCTGTSSDIGTYKFVSWYQQHPDKAPKVLLYEVSKRPSGVSSRFSGSKSDNTASLTISGLQAEDQADYHCCSYAGSGTLLFGGGTKLTVL shows % positive of 70% or more.
Not satisfied

Threshold query (% positive >= 70%) on BLW-2E6 (antibody, V domains shown, OmniRat hybridoma supernatant: human V regions on rat constant regions; also called V regions cloned as CD3B312 (CD3H219/CD3L124)) VH: QVQLQQSGPRLVRPSQTLSLTCAISGDSVFNNNAAWSWIRQSPSRGLEWLGRTYYRSKWLYDYAVSVKSRITVNPDTSRNQFTLQLNSVTPEDTALYYCARGYSSSFDYWGQGTLVTVSS VL: QSALTQPASVSGSPGQSITISCTGTSSNIGTYKFVSWYQQHPDKAPKVLLYEVSKRPSGVSSRFSGSKSGNTASLTISGLQAEDQADYHCCSYAGSGTLLFGGGTKLTVL
Not satisfied

Does the reported % positive for BLX-2E9 (antibody, V domains shown, OmniRat hybridoma supernatant: human V regions on rat constant regions; also called V regions cloned as CD3B315 (CD3H221/CD3L124)) VH: QVQLQQSGPGLVKPSQTLSLTCAISGDSVFNNNGAWSWIRQSPSRGLEWLGRTYYRSKWLYDYAVSVKSRITVNPDTSRNQFTLQLNSVTPEDTALYYCARGYSSSFDYWGQGTLVTVSS VL: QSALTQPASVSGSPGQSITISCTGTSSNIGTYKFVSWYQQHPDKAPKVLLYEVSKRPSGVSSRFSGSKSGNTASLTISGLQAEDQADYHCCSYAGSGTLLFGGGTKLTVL fall at or above the 70% mark?
Not satisfied

Quick check, % positive >= 70%? BLX-3F4 (antibody, V domains shown, OmniRat hybridoma supernatant: human V regions on rat constant regions; also called V regions cloned as CD3B316 (CD3H222/CD3L124)) VH: QVRLQQSGPGLVKPSQTLSLTCAISGDSVFNNNAAWSWIRQSPSRGLEWLGRTYYRSKWLYDYAVTVKSRITVNPDTSRNQFTLQLTSVTPEDTALYYCARGYSSSFDYWGQGTLVTVSS VL: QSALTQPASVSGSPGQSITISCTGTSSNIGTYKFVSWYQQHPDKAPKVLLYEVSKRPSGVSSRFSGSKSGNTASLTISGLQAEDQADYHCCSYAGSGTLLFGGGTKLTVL
Satisfied

Reported % positive reaches at least 70% for BLW-3B4 (antibody, V domains shown, OmniRat hybridoma supernatant: human V regions on rat constant regions; also called V regions cloned as CD3B313 (CD3H218/CD3L125)) VH: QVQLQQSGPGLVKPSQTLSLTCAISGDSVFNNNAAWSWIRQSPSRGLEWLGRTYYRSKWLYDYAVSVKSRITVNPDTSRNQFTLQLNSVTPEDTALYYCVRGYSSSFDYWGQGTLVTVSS VL: QSALTQPASVSGSPGQSITISCTGTSRDIGTYKFVSWYQQHPDKAPKVLLYEVSKRPSGVSSRFSGSKSGNTASLTISGLQAEDQADYHCCSYAGSGTLLFGGGTKLTVL ?
Not satisfied
